experiment: self-splicing fitness, log relative to wild type (ln ratio); higher = more splicing; Tetrahymena group I intron in knt gene, E. coli kanamycin selection, DiMSum; sequences stand for … in CUCUCU…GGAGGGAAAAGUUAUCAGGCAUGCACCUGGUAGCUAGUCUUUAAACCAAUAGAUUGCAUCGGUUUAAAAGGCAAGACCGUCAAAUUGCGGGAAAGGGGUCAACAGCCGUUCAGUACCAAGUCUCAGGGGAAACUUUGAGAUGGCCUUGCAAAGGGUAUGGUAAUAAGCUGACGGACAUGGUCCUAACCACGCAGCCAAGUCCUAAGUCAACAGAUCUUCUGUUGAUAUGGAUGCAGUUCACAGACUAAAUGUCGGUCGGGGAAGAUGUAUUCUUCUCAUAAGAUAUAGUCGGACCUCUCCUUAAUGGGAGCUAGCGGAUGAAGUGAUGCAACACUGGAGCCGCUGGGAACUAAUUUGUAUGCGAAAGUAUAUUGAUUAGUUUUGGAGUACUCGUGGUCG; settings: 30 °C;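 note: selection with 25 µg/mL kanamycin versus none on LB agar overnight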
Rule: self-splicing fitness (ln) of -4 or more gives Met; anything lower gives Not met.

Please indicate if the recorded self-splicing fitness (ln) for "UCCCAGCAAUAUUACGUAGA" meets or exceeds -4.
Met

Try this sequence too: "CUCGAGCAAUAUUACGUGAC"
Met

Request: "CACUAGCAAUAUUACGUUUU"
Met

Also "GAUUAGCAAUAUUACGCUAU" , if possible.
Met

Also need "CAAUAGCAAUAUUACGAGGU" , thanks.
Not met

How about this sequence: "UGGAAGCAAUAUUACGGGAG"
Met

----------
So I've got a bunch of sequences here, and I need their self-splicing fitness (ln) values.
experiment: self-splicing fitness, log relative to wild type (ln ratio); higher = more splicing; Tetrahymena group I intron in knt gene, E. coli kanamycin selection, DiMSum; sequences stand for … in CUCUCU…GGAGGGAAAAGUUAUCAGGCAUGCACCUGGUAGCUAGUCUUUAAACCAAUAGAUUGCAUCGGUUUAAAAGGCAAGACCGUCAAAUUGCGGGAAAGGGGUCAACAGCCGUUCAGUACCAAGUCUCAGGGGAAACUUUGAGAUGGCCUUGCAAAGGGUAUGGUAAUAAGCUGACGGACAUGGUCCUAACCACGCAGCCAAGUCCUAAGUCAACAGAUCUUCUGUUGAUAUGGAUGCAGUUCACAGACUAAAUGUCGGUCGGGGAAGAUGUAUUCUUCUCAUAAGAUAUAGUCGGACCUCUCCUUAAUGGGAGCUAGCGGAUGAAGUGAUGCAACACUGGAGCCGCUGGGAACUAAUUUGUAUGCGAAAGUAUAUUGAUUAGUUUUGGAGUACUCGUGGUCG; conditions: 37 °C
Write the value as a bare number.

Given the sequence "ACAAAGCAAUAUUACGUCUU" , what is its reported self-splicing fitness (ln)?
-0.41

And the next one, "CAGCAGCAAUAUUACGUCAA" ?
-3.37

Now the sequence "CCAUAGCAAUAUUACGCAAU"
-2.64

Queued: "CGCAAGCAAUAUUACGCGUG"
-1.99

Next sequence: "CCCUAGCAAUAUUACGACGC"
-2.53

Param item: "UGCUAGCAAUAUUACGUGAU"
-1.39

Try the sequence "AUAAAGCAAUAUUACGCGAU"
-1.36

Moving on to the next sequence: "CCAUAGCAAUAUUACGGUAC"
-3.05

Item: "UUGAAGCAAUAUUACGUGAA"
-0.781

// repeat for "CGCUAGCAAUAUUACGGUAG" and report
-2

Entry to check: "AUUCAGCAAUAUUACGAGUC"
-2.13

Another sequence to look at: "UCCGAGCAAUAUUACGGCGG"
-2.2

Also check "AUCGAGCAAUAUUACGGCGU"
-0.183

Continue with "CUAAAGCAAUAUUACGCAAG"
-0.574

Also check "CAGAAGCAAUAUUACGGGGU"
-2.34

Now try "UUCUAGCAAUAUUACGUUAC" .
-2.42

Reference source for all entries: the supplement of paper PMC7877785
